# tested.target: T1, Dmc1 (Saccharomyces cerevisiae, UniProt P25453 1-334)
# T1 sequence: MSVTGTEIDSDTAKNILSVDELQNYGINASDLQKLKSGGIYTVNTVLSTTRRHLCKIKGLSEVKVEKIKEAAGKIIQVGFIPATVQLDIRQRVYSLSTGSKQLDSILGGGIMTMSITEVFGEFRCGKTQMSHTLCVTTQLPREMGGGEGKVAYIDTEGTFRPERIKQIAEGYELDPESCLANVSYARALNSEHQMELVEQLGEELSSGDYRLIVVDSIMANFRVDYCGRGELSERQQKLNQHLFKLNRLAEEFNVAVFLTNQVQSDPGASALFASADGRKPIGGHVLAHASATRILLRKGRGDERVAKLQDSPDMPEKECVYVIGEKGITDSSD
# assay.explanation: smFRET
reported.metric: pKd
In simple prose, pKd is minus the logarithm base ten of a concentration in moles per litre.

Entry under test: dT7 (mixed) DNA 1: TGGCGACGCAGCGAGGCTTTTTTT DNA 2: GCCTCGCTGCCGTCGCCA . Its pKd was 5.76
